Where do the numbers come from? From patent US10889573B2.

Each item that follows carries a reported chromatographic logP.
Experiment: log P by HPLC on reversed phase columns (Method L0)
Please reply with the value in numeric form only.

Below, 4 molecules whose answers are already recorded.
O=C(N[C@H]1CCOc2ccccc21)c1cnc2c(-c3cc(Cl)cc(Cl)c3)cccc2c1-n1ccnn1 4.5
CCc1c(C(=O)N[C@H]2CCOc3ccccc32)cnc2c(-c3cc(Cl)cc(Cl)c3)cccc12 5.06
CN(CC(=O)O)c1c(C(=O)N[C@H]2CCOc3ccccc32)cnc2c(-c3cc(Cl)cc(Cl)c3)cccc12 3.1
CCc1cc(Cl)cc(-c2cccc3c(CC)c(C(=O)N[C@H]4CCOc5ccccc54)cnc23)c1 5.1

// chromatographic logP lookup, molecule = CN(c1c(C(=O)N[C@H]2CCOc3ccccc32)cnc2c(-c3cccc(Cl)c3Cl)cccc12)C1COC1 , result: 3.14
